Please provide measured pIC50 for the entries that follow.
study_target: hACSL5 (Homo sapiens (Human))
Sequence (Q9ULC5 33-683): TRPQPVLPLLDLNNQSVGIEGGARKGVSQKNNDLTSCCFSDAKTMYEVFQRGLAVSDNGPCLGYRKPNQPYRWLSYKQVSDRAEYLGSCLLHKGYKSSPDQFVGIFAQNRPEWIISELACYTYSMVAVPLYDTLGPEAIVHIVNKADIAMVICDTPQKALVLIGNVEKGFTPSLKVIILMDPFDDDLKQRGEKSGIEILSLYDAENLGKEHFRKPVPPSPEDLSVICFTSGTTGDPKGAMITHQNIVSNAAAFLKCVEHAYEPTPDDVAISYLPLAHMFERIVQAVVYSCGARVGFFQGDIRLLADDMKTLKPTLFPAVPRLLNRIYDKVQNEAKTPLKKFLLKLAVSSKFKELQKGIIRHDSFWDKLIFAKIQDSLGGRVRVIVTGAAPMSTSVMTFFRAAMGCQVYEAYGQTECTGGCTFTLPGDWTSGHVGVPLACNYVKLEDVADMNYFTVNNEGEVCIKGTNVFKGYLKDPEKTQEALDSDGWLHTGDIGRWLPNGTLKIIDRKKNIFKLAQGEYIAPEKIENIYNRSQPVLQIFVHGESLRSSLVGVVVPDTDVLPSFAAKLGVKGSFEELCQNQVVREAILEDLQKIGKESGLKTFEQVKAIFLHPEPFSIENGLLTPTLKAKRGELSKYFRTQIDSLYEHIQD
test_summary: Human ACSL5 coupled enzyme Amplex Red assay
Assay type: biochemical
details: read-out: hACSL5 IC50
pIC50: −log10 of the molar value.

Recorded pIC50 (compound CC[C@@H](Oc1ccc(C(=O)NS(=O)(=O)N2CCN(CC)CC2)cc1C(F)(F)F)c1ccc(OC2CC(OC)C2)cn1 (stereo partly shown) ): 6.30 to 7.00

Recorded pIC50 (compound CC[C@@H](Oc1ccc(C(=O)NS(=O)(=O)c2ccc(NC3CCN(C)CC3)cn2)c(F)c1F)c1ccc(OCC2CC2)cn1 ): > 7.00

Recorded pIC50 (compound CC[C@@H](Oc1ccc(C(=O)NS(=O)(=O)c2ccc(O[C@H]3CCCN(C)C3)cc2)c(F)c1F)c1ccc(Oc2ccccn2)cn1 ): > 7.00

Recorded pIC50 (compound CC[C@@H](Oc1ccc(C(=O)NS(=O)(=O)N2CCN(C3CCCCC3)CC2)c(F)c1F)c1ccc(Oc2ccccn2)cn1 ): > 7.00

Recorded pIC50 (compound CC[C@@H](Oc1ccc(C(=O)NS(=O)(=O)c2ccc(OCc3c[nH]cn3)cc2)c(F)c1F)c1ccc(OCCOC)cn1 ): > 7.00

Recorded pIC50 (compound CC(Oc1ccc(C(=O)NS(=O)(=O)c2ccc(CN)cc2)cc1C(F)(F)F)c1cccc(Oc2ccccn2)c1 (stereo not shown) ): > 7.00

Recorded pIC50 (compound CC[C@@H](Oc1ccc(C(=O)NS(=O)(=O)N2CCC(OC3CCN(C)CC3)CC2)cc1C(F)(F)F)c1ccc(OCC2CC2)cn1 ): > 7.00

Recorded pIC50 (compound CC[C@@H](Oc1ccc(C(=O)NS(=O)(=O)c2ccc(O[C@@H]3CCCN(C)C3)cc2)c(F)c1F)c1ccc(Oc2ccccn2)cn1 ): > 7.00

Recorded pIC50 (compound CC[C@@H](Oc1ccc(C(=O)NS(=O)(=O)c2ccc(O[C@@H]3CCN(C)C3)cc2)c(F)c1F)c1ccc(OCC2CC2)cn1 ): > 7.00

Recorded pIC50 (compound CC[C@@H](Oc1ccc(C(=O)NS(=O)(=O)N2CCN(CC)CC2)cc1C(F)(F)F)c1ccc(Oc2ccccn2)cn1 ): > 7.00

Recorded pIC50 (compound CC[C@@H](Oc1ccc(C(=O)NS(=O)(=O)N2CCC(OC3CCN(C)CC3)CC2)c(F)c1F)c1cc(OC2CC(OC)C2)ccn1 (stereo partly shown) ): < 6.30

Recorded pIC50 (compound CC[C@@H](Oc1ccc(C(=O)NS(=O)(=O)c2ccc(OCCN(C)C)cc2)cc1C(F)(F)F)c1ccc(OCC2CC2)cn1 ): > 7.00

Recorded pIC50 (compound CC(Oc1ccc(C(=O)NS(=O)(=O)c2ccc(CN)cc2)c(Cl)c1Cl)c1cccc(Oc2ccccc2)c1 (racemic) ): > 7.00

Recorded pIC50 (compound CCCC(C)COc1cccc(C(C)Oc2ccc(C(=O)NS(=O)(=O)c3ccc(CN)cc3)cc2C(F)(F)F)c1 (stereo not shown) ): < 6.30

Recorded pIC50 (compound CC[C@@H](Oc1ccc(C(=O)NS(=O)(=O)N2CCN(C(C)C)CC2)c(F)c1F)c1ccc(OCC2CC2)cn1 ): 6.30 to 7.00

Recorded pIC50 (compound CC[C@@H](Oc1ccc(C(=O)NS(=O)(=O)N2CCC(OCCN(C)C)CC2)c(F)c1F)c1ccc(OCCOC)cn1 ): < 6.30

Recorded pIC50 (compound CC[C@@H](Oc1ccc(C(=O)NS(=O)(=O)N2CC3(CN(C)C3)C2)c(F)c1F)c1ccc(Oc2ccccn2)cn1 ): 6.30 to 7.00

Recorded pIC50 (compound CN(C)Cc1ccc(S(=O)(=O)NC(=O)c2ccc(OCc3cccc(Oc4ccccc4)c3)c(F)c2F)cc1 ): 6.30 to 7.00

Recorded pIC50 (compound CCOc1ccc(C(CC)Oc2ccc(C(=O)NS(=O)(=O)CCCN3CCOCC3)cc2C(F)(F)F)nc1 (stereo not shown) ): 6.30 to 7.00

Recorded pIC50 (compound CC[C@@H](Oc1ccc(C(=O)NS(=O)(=O)N2CC3=C(CN(C)C3)C2)c(F)c1F)c1ccc(Oc2ccccn2)cn1 ): 6.30 to 7.00

Recorded pIC50 (compound CC[C@@H](Oc1ccc(C(=O)NS(=O)(=O)N2CCC(OC3CCN(C)CC3)CC2)c(F)c1F)c1cccc(OCC2CC2)c1 ): 6.30 to 7.00

Recorded pIC50 (compound CC[C@@H](Oc1ccc(C(=O)NS(=O)(=O)N2CCN(CC)CC2)c(F)c1F)c1ccc(OC2CC(OC)C2)cn1 (stereo partly shown) ): 6.30 to 7.00
